TARGET OF ASSAY: T1, TMTC4 (peptide code TMTC4-001) peptide on HLA-A*02:01 (human)
T1 peptide: NVLEIVQKV
METHOD: cytokine release
REPORTED PROPERTY: binding result

INSERT INTO assay_data (binder, reported_property, result) VALUES
  ('R26P2A6 (TCR, V domains shown) Valpha: QKEVEQDPGPLSVPEGAIVSLNCTYSNSAFQYFMWYRQYSRKGPELLMYTYSSGNKEDGRFTAQVDKSSKYISLFIRDSQPSDSATYLCAMSDVSGGYNKLIFGAGTRLAVHP Vbeta: EAQVTQNPRYLITVTGKKLTVTCSQNMNHEYMSWYRQDPGLGLRQIYYSMNVEVTDKGDVPEGYKVSRKEKRNFPLILESPSPNQTSLYFCASTTPDGTDEQFFGPGTRLTVL', 'binding result', 'no recognition'),
  ('R59P2E7 (TCR, V domains shown) Valpha: KQEVTQIPAALSVPEGENLVLNCSFTDSAIYNLQWFRQDPGKGLTSLLLIQSSQREQTSGRLNASLDKSSGRSTLYIAASQPGDSATYLCAVNSDYKLSFGAGTTVTVRA Vbeta: AAGVIQSPRHLIKEKRETATLKCYPIPRHDTVYWYQQGPGQDPQFLISFYEKMQSDKGSIPDRFSAQQFSDYHSELNMSSLELGDSALYFCASSLGLGTGDYGYTFGSGTRLTVV', 'binding result', 'no recognition'),
  ('R37P1H1 (TCR, V domains shown) Valpha: AQTVTQSQPEMSVQEAETVTLSCTYDTSESNYYLFWYKQPPSRQMILVIRQEAYKQQNATENRFSVNFQKAAKSFSLKISDSQLGDTAMYFCAFGYSGGGADGLTFGKGTHLIIQP Vbeta: DAGVTQSPTHLIKTRGQQVTLRCSPKSGHDTVSWYQQALGQGPQFIFQYYEEEERQRGNFPDRFSGHQFPNYSSELNVNALLLGDSALYLCASSNEGQGWEAEAFFGQGTRLTVV', 'binding result', 'no recognition');
